src = PubChem BioAssay

- protocol.details: inhibitors of fungal efflux pumps CDR1, CDR2, MDR1, pilot screen, validation compound set, multiplex, phenotypic (AID 588506);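 also: Nile Red retained in cells so higher fluorescence means more efflux inhibition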
- setup.conditions: S. cerevisiae pump-expressing triplex, Nile Red efflux flow cytometry; at 10 µM; the pumps come from Candida albicans
Activity calls are given as the source filed them.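 The calls were made as follows: active = efflux inhibition above 0.42, the validation set average plus 4 SD; inconclusive = no clear call, values can overlap the other calls; inactive = the rest.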
Valid outcomes are listed here; reply with one: active, inactive

Please review the entries below; each comes with its answer.
CC1=CC(C)(C)N2C(=O)C3(NCCc4c3[nH]c3ccccc43)c3cc(C)cc1c32 (centres undefined)	inactive
CC(C)c1ccccc1OCCNC(=S)NC(=O)c1cccnc1	active
COc1ccc(CCN(C)CC(=O)Nc2cc(C)nc3ccccc23)cc1OC	inactive
C[C@@H]1C[C@H]2[C@@H]3CCC4=CC(=O)C=C[C@]4(C)[C@@]3(F)[C@@H](O)C[C@]2(C)[C@H]1C(=O)CO	inactive
CC(C)COc1ccc(Cc2cnc(N)nc2N)cc1	inactive

stdin: Would you mind telling me which call this test gave `C#C[C@]1(O)CC[C@H]2[C@@H]3CCC4=C(CCC(=O)C4)[C@H]3CC[C@@]21C` ?
stdout: inactive

stdin: State the result this test recorded for `CN1CCC(=C2c3ccccc3C=Cc3ccccc32)CC1` .
stdout: inactive

stdin: Dear all, I need the recorded test outcome for `CN1[C@@H](CC(=O)c2ccccc2)CCC[C@H]1C[C@H](O)c1ccccc1` , thank you.
stdout: inactive

stdin: I would be grateful if you could indicate the recorded call for `CNCCC=C1c2ccccc2CCc2ccccc21` .
stdout: inactive
